Taken from ChEMBL document CHEMBL4400509.

Biological target: Lysosomal acid glucosylceramidase (Homo sapiens) (UniProt P04062)
Sequence (whole entry): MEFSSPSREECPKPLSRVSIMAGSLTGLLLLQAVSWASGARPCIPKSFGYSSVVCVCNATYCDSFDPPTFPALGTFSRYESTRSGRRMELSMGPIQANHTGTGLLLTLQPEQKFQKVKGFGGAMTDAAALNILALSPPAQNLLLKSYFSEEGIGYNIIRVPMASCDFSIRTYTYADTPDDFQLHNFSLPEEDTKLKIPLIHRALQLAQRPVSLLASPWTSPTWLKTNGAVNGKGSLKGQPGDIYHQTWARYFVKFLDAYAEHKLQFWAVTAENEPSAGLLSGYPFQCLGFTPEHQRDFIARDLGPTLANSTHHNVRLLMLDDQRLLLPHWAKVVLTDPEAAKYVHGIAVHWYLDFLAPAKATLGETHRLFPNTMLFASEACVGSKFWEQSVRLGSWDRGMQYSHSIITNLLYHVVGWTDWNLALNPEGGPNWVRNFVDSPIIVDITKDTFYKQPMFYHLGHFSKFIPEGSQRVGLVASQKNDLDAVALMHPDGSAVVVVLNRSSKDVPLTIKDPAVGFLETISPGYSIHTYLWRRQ
Assay: Activation of wild type recombinant human lysosomal beta-glucocerebrosidase at 0.048 to 100 uM using 4-methylumbelliferyl-beta-D-glucopyranoside as substrate preincubated for 5 mins followed by substrate addition and measured after 30 mins by fluorescence assay relative to control
Activity calls are given as the source filed them. The rule behind the calls is not given here.
Measured Endpoint: Emax

INSERT INTO results (compound, recorded_value) VALUES
  ('CN(CCCc1ccccc1)c1nc(-c2cccnc2)nc2ccccc12', '223%'),
  ('CN(CCOc1ccccc1)c1nc(-c2cccnc2)nc2ccccc12', '552 to 761%'),
  ('c1ccc(CC2CCCCN2c2nc(-c3cccnc3)nc3ccccc23)cc1 (centres undefined)', '364%'),
  ('CN(c1nc(-c2cccnc2)nc2ccccc12)C1CCCC1', '149%');

**Q:** Assign Emax to the following record: `c1cncc(-c2nc(N3CCc4c([nH]c5ccccc45)C3)c3ccccc3n2)c1`
**A:** 175%

**Q:** Assign Emax to the following record: CC(COc1ccccc1)N(C)c1nc(-c2cccnc2)nc2ccccc12 (centres undefined)
**A:** 345%

**Q:** Assign Emax to the following record: `CN(Cc1ccc2ccccc2c1)c1nc(-c2cccnc2)nc2ccccc12`
**A:** 155%

**Q:** Assign Emax to the following record: `c1ccc(OCCN(CC2CC2)c2nc(-c3cccnc3)nc3ccccc23)cc1`
**A:** inactive

----------
Molecular target: Lysosomal acid glucosylceramidase (Homo sapiens, UniProt P04062)
Sequence (P04062 whole entry): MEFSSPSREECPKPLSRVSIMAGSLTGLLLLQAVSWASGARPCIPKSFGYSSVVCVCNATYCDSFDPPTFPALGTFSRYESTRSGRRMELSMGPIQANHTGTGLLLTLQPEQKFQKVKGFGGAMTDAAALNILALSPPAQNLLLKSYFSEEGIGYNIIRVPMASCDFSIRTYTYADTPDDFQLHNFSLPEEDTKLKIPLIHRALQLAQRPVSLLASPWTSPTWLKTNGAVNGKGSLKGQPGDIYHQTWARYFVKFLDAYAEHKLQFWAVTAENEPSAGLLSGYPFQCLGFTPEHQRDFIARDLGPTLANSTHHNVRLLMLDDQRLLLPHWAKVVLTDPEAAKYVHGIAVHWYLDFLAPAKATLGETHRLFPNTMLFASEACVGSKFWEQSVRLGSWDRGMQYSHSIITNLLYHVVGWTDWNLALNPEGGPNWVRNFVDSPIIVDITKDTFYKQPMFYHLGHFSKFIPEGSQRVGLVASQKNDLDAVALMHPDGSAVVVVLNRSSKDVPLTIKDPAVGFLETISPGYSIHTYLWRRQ
Assay: Activation of wild type recombinant human lysosomal beta-glucocerebrosidase using 4-methylumbelliferyl-beta-D-glucopyranoside as substrate preincubated for 5 mins followed by substrate addition and measured after 30 mins by fluorescence assay
Details: read-out: AC50
Measured Endpoint: log10(AC50) (log10 of the value in µM)
A difference of one corresponds to tenfold AC50; all values are log10 with AC50 in µM.

INSERT INTO results (compound, measured_endpoint, recorded_value) VALUES
  ('CN(Cc1ccc2c(c1)OCO2)c1nc(-c2cccnc2)nc2ccccc12', 'log10(AC50)', 0.21),
  ('CN(Cc1nc2ccccc2[nH]1)c1nc(-c2cccnc2)nc2ccccc12', 'log10(AC50)', 0.90),
  ('CN(CCOCc1ccccc1)c1nc(-c2cccnc2)nc2ccccc12', 'log10(AC50)', 1.23),
  ('CN(Cc1ccc2ccccc2c1)c1nc(-c2cccnc2)nc2ccccc12', 'log10(AC50)', 0.58),
  ('CN(CCOc1ccccc1)c1nc(-c2ccco2)nc2ccccc12', 'log10(AC50)', 1.34),
  ('CN(Cc1cnc2ccccc2n1)c1nc(-c2cccnc2)nc2ccccc12', 'log10(AC50)', 0.21),
  ('c1ccc(CC2CCCCN2c2nc(-c3cccnc3)nc3ccccc23)cc1 (stereo not given)', 'log10(AC50)', 0.65),
  ('CN(C[C@@H]1COc2ccccc2O1)c1nc(-c2cccnc2)nc2ccccc12', 'log10(AC50)', 0.37);

**Q:** Assign log10(AC50) to the following record: `c1cncc(-c2nc(N3CCCOCC3)c3ccccc3n2)c1`
**A:** 1.64

**Q:** Assign log10(AC50) to the following record: `CN(CCOc1ccccc1)c1nc(-c2ccoc2)nc2ccccc12`
**A:** 0.23

**Q:** Assign log10(AC50) to the following record: `CN(CCc1ccccc1)c1nc(-c2cccnc2)nc2ccccc12`
**A:** 0.14

**Q:** Assign log10(AC50) to the following record: `CCCN(CCOc1ccccc1)c1nc(-c2cccnc2)nc2ccccc12`
**A:** 0.50

**Q:** Assign log10(AC50) to the following record: CC(CN(C)c1nc(-c2cccnc2)nc2ccccc12)Oc1ccccc1 (stereo not given)
**A:** 0.95

**Q:** Assign log10(AC50) to the following record: `c1cncc(-c2nc(N3CCOc4ccccc4C3)c3ccccc3n2)c1`
**A:** 0.99
